Exercise: state measured IC50 for each of the compounds provided.
Target: Sodium-dependent serotonin transporter (Homo sapiens)
Sequence (P31645 whole entry): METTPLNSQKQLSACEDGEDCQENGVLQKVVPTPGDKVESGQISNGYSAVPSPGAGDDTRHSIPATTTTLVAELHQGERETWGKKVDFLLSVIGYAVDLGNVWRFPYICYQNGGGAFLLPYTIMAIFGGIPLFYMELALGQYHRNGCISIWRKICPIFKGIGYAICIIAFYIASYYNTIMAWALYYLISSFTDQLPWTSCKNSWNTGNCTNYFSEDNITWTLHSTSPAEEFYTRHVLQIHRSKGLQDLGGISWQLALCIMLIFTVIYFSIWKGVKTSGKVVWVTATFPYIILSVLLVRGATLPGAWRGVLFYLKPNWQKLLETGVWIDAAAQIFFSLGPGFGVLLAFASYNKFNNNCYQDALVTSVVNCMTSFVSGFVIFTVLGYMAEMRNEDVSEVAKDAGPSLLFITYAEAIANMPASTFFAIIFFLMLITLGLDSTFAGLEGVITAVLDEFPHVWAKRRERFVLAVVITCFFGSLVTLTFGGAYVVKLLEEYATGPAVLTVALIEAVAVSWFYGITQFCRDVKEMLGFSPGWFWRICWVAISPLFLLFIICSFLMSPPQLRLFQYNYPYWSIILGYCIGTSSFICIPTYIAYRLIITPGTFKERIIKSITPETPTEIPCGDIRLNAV
Assay: Inhibition of [3H]5HT uptake at human 5HT transporter expressed in HEK293 cells
Your answer should be a plain number; it is taken to be in nM.

Q: For CNCc1cc(C(N)=O)ccc1Oc1ccc(Cl)cc1OC , what is its reported IC50?
Result: 12

Q: Again, but for CNCc1cc(C#N)ccc1Oc1ccc(Cl)cc1OC
Result: 5

Q: Again, but for CNCc1ccccc1Oc1ccc(OC)cc1Cl
Result: 22

Q: Again, but for CNCc1cc(N2CCCS2(=O)=O)ccc1Oc1ccc(Cl)cc1C
Result: 10

Q: Again, but for CNCc1cc(C(=O)NC)ccc1Oc1ccc(Cl)cc1C
Result: 14

Q: Again, but for CN(C)Cc1ccccc1Oc1ccccc1
Result: 660

Q: Again, but for CNCc1ccccc1Oc1ccc(Cl)cc1C
Result: 18

Q: Again, but for CN(C)Cc1ccccc1Oc1ccc(Cl)cc1F
Result: 6

Q: Again, but for CNCc1cc(C(=O)NC)ccc1Oc1ccc(Cl)cc1OC
Result: 13

Q: Again, but for CN(C)Cc1ccccc1Oc1ccc(F)cc1Cl
Result: 32

Q: Again, but for COc1cc(Cl)ccc1Oc1ccccc1CN(C)C
Result: 6

Q: Again, but for CNCc1cc(C(=O)N(C)C)ccc1Oc1ccc(Cl)cc1Cl
Result: 11

Q: Again, but for CNCc1cc(N2CCCS2(=O)=O)ccc1Oc1ccc(Cl)cc1Cl
Result: 12

Q: Again, but for CNCc1cc(C(N)=O)ccc1Oc1ccc(Cl)cc1Cl
Result: 37

Q: Again, but for CN(C)Cc1ccccc1Oc1ccc(Cl)cc1
Result: 18

Q: Again, but for CNCc1cc(NS(C)(=O)=O)ccc1Oc1ccc(Cl)cc1C
Result: 16

Q: Again, but for CNCc1cc(C(N)=O)ccc1Oc1ccc(Cl)cc1C
Result: 7

Q: Again, but for CNCc1ccccc1Oc1ccc(Cl)cc1Cl
Result: 56

Q: Again, but for CN(C)Cc1ccccc1Oc1cccc(Cl)c1
Result: 238

Q: Again, but for CNCc1cc(C#N)ccc1Oc1ccc(Cl)cc1Cl
Result: 28

Q: Again, but for CNCc1cc(C(=O)N(C)C)ccc1Oc1ccc(Cl)cc1OC
Result: 8

Ref: ChEMBL document CHEMBL1141595
